Quick reference: IC50 of the listed items.
- Target Or Test System: CDK2/Cyclin E complex (Homo sapiens)
- Construct: purchased Eurofins 14-475
- Assay Overview: CDK2/Cyclin E fluorescence-based microfluidic mobility shift assay (CDK2 Biochemical Caliper Assay)
- Experimental Conditions: read-out: Biochemical CDK2/CyclinE Caliper IC50

1) Cc1cc(CC(=O)Nc2cc(C34CCC(CC3)C4)[nH]n2)on1 [Example 244] | 1000 to 100000 nM

Query block: Given the entry COCc1cc(C(=O)Nc2cc([C@@H]3C[C@H](Oc4cnccc4C4CC4)CO3)[nH]n2)n(C)n1 (single isomer, unassigned) [Example 538] , report its measured IC50.
Result block: 1000 to 100000 nM

Query block: Given the entry CC(C)c1nc(Nc2cc(C3CCCC3)[nH]n2)c2cc[nH]c2n1 [Example 864] , report its measured IC50.
Result block: 250 to 1000 nM

Query block: Given the entry CC(C)NC(=O)O[C@@H]1CC[C@H](c2cc(Nc3nccc4ncsc34)n[nH]2)C1 (single isomer, unassigned) [Example 121] , report its measured IC50.
Result block: ≤ 100 nM
